Ref: the CATMoS acute toxicity set (Mansouri et al. 2021)

A collection of molecules and their measured GHS category
# experimental_details: GHS categories as the set defines them, by LD50: 1 up to 5, 2 up to 50, 3 up to 300, 4 up to 2000, 5 above 2000 mg/kg
# run_conditions: rat; in vivo; po

[
  {
    "molecule": "CC(=O)OCCCCCCCCCOC(C)=O",
    "GHS category": 5
  },
  {
    "molecule": "CN1C(=O)COc2cc(C(=O)C=Cc3ccc(Cl)cc3)ccc21",
    "GHS category": 5
  },
  {
    "molecule": "CC(=O)OC1CCC2CCCCC2C1 (stereo not drawn)",
    "GHS category": 5
  },
  {
    "molecule": "FC(F)(F)c1nc(NC2CC2)c2ncn(CC3CC3)c2n1",
    "GHS category": 3
  },
  {
    "molecule": "CN1CN(C)CN(C)C1",
    "GHS category": 4
  },
  {
    "molecule": "O=C1OCc2c(Cl)cccc21",
    "GHS category": 4
  },
  {
    "molecule": "CCC=CCCOC(=O)C(C)C",
    "GHS category": 5
  },
  {
    "molecule": "CC(C)=CCC(C#N)(CCN1CCCCC1)c1cccc2ccccc12 (stereo not drawn)",
    "GHS category": 4
  },
  {
    "molecule": "CCCCCCCCCCCCCCCCOP(=O)(O)O",
    "GHS category": 5
  },
  {
    "molecule": "Cc1cc(O)cc(C)c1S(C)(=O)=O",
    "GHS category": 4
  },
  {
    "molecule": "NCC1(CC(=O)O)CCCCC1",
    "GHS category": 5
  },
  {
    "molecule": "CO[Si](CC(C)CC(C)(C)C)(OC)OC (stereo not drawn)",
    "GHS category": 5
  },
  {
    "molecule": "CC(C)CCCCCCCOP(=O)(Oc1ccccc1)Oc1ccccc1",
    "GHS category": 5
  },
  {
    "molecule": "O=C1NC(=O)c2ccc3c4cccc5cccc(c6ccc1c2c63)c54",
    "GHS category": 5
  },
  {
    "molecule": "CC1=C(C/C=C(\\C)CCC[C@H](C)CCC[C@H](C)CCCC(C)C)C(=O)c2ccccc2C1=O",
    "GHS category": 5
  },
  {
    "molecule": "Cc1ccc2c([nH]c(=O)c3c(=O)cc(C(=O)OCCC(C)C)oc32)c1C",
    "GHS category": 5
  },
  {
    "molecule": "CC(C)(C)c1ccc2oc(-c3ccc(C=Cc4ccc(-c5ccccc5)cc4)cc3)nc2c1",
    "GHS category": 5
  },
  {
    "molecule": "CC(C)=CCC/C(C)=C/CC/C(C)=C/CCC(=O)OC/C=C(\\C)CCC=C(C)C",
    "GHS category": 5
  }
]
